Task for the reader: assign each of the following compounds its reported AC50.
- system.tested: Alpha-1A adrenergic receptor (Homo sapiens, UniProt P35348); note: assay procedure not described here
- Sequence (P35348 whole entry): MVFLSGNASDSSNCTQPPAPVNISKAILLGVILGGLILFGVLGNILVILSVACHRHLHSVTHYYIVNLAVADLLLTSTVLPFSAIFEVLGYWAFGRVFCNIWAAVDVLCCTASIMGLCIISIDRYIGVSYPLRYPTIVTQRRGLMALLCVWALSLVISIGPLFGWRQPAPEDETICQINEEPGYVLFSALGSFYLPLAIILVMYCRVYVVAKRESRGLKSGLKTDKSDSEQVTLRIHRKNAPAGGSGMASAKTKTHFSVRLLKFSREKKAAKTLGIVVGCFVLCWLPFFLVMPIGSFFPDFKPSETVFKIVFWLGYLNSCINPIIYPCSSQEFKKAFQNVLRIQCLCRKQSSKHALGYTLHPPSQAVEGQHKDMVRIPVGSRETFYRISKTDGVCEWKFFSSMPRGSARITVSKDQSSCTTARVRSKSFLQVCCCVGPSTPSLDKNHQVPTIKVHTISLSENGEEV
- Format: functional, cell-based

Study these solved cases before continuing.
CCC(C(=O)O)c1ccc(N2Cc3ccccc3C2=O)cc1 (stereo not drawn) [INDOBUFEN]	5.3 µM
Cc1cn([C@H]2C[C@H](N=[N+]=[N-])[C@@H](CO)O2)c(=O)[nH]c1=O [ZIDOVUDINE]	> 30 µM
CO/N=C(\C(=O)N[C@@H]1C(=O)N2C(C(=O)O)=C(CSc3nnnn3C)CS[C@H]12)c1csc(N)n1 [CEFMENOXIME]	> 30 µM
CN(C)CCC=C1c2ccccc2C(C)(C)c2ccccc21	0.63 µM
Cc1nnc2n1-c1ccc(Cl)cc1C(c1ccccc1Cl)=NC2 [TRIAZOLAM]	> 30 µM

Batch lookup, AC50 per entry.
1. COc1cc2c(N)nc(N3CCN(C(=O)OCC(C)(C)O)CC3)nc2c(OC)c1OC [TRIMAZOSIN]
2. CC1(C)O[C@@H]2C[C@H]3[C@@H]4CCC5=CC(=O)C=C[C@]5(C)[C@H]4[C@@H](O)C[C@]3(C)[C@]2(C(=O)CO)O1 [DESONIDE]
3. CCOC(=O)[N-]c1cn(N2CCOCC2)n[o+]1 [MOLSIDOMINE]

Given back:
1. 1.2 µM
2. > 30 µM
3. > 30 µM
